Data origin: ChEMBL document CHEMBL1275259

MIC listing for selected molecules.
Test system: Mycobacterium tuberculosis
Assay: Antimicrobial activity against pansusceptible Mycobacterium tuberculosis isolate 6
Type: functional
VALUE KIND: MIC (µg/mL)

>>> recorded_result("COc1c(N2CC[C@@H](C(C)(C)N)C2)c(F)cc2c(=O)c3c(=O)[nH]sc3n(C3CC3)c12")
0.03
>>> recorded_result("NNC(=O)c1ccncc1")
0.06
>>> recorded_result("COc1c(N2C[C@@H]3CCCN[C@@H]3C2)c(F)cc2c(=O)c(C(=O)O)cn(C3CC3)c12")
0.03
>>> recorded_result("CO[C@H]1/C=C/O[C@@]2(C)Oc3c(C)c(O)c4c(O)c(c(/C=N/N5CCN(C)CC5)c(O)c4c3C2=O)NC(=O)/C(C)=C\\C=C\\[C@H](C)[C@H](O)[C@@H](C)[C@@H](O)[C@@H](C)[C@H](OC(C)=O)[C@@H]1C")
0.008

* * *

MIC listing for selected compounds.
System: Mycobacterium tuberculosis
Assay: Antimicrobial activity against pansusceptible Mycobacterium tuberculosis isolate 1
Assay type: functional
VALUE KIND: MIC (µg/mL)

>>> recorded_result("CO[C@H]1/C=C/O[C@@]2(C)Oc3c(C)c(O)c4c(O)c(c(/C=N/N5CCN(C)CC5)c(O)c4c3C2=O)NC(=O)/C(C)=C\\C=C\\[C@H](C)[C@H](O)[C@@H](C)[C@@H](O)[C@@H](C)[C@H](OC(C)=O)[C@@H]1C")
0.004
>>> recorded_result("COc1c(N2C[C@@H]3CCCN[C@@H]3C2)c(F)cc2c(=O)c(C(=O)O)cn(C3CC3)c12")
0.03
>>> recorded_result("COc1c(N2CC[C@@H](C(C)(C)N)C2)c(F)cc2c(=O)c3c(=O)[nH]sc3n(C3CC3)c12")
0.06
>>> recorded_result("NNC(=O)c1ccncc1")
0.03

* * *

MIC listing for selected molecules.
Tested on: Mycobacterium tuberculosis
Experiment: Antimicrobial activity against pansusceptible Mycobacterium tuberculosis isolate 5
Type: functional
VALUE KIND: MIC (µg/mL)

>>> recorded_result("COc1c(N2CC[C@@H](C(C)(C)N)C2)c(F)cc2c(=O)c3c(=O)[nH]sc3n(C3CC3)c12")
0.06
>>> recorded_result("NNC(=O)c1ccncc1")
0.125
>>> recorded_result("CO[C@H]1/C=C/O[C@@]2(C)Oc3c(C)c(O)c4c(O)c(c(/C=N/N5CCN(C)CC5)c(O)c4c3C2=O)NC(=O)/C(C)=C\\C=C\\[C@H](C)[C@H](O)[C@@H](C)[C@@H](O)[C@@H](C)[C@H](OC(C)=O)[C@@H]1C")
0.015
>>> recorded_result("COc1c(N2C[C@@H]3CCCN[C@@H]3C2)c(F)cc2c(=O)c(C(=O)O)cn(C3CC3)c12")
0.06

* * *

Test system: Mycobacterium tuberculosis
Assay: Antimicrobial activity against pansusceptible Mycobacterium tuberculosis isolate 4
Format: functional
MIC listing for selected molecules.
VALUE KIND: MIC (µg/mL)

>>> recorded_result("COc1c(N2CC[C@@H](C(C)(C)N)C2)c(F)cc2c(=O)c3c(=O)[nH]sc3n(C3CC3)c12")
0.06
>>> recorded_result("CO[C@H]1/C=C/O[C@@]2(C)Oc3c(C)c(O)c4c(O)c(c(/C=N/N5CCN(C)CC5)c(O)c4c3C2=O)NC(=O)/C(C)=C\\C=C\\[C@H](C)[C@H](O)[C@@H](C)[C@@H](O)[C@@H](C)[C@H](OC(C)=O)[C@@H]1C [RIFAMPIN]")
0.008
>>> recorded_result("NNC(=O)c1ccncc1 [ISONIAZID]")
0.06
>>> recorded_result("COc1c(N2C[C@@H]3CCCN[C@@H]3C2)c(F)cc2c(=O)c(C(=O)O)cn(C3CC3)c12 [MOXIFLOXACIN]")
0.06
